Listing of entries alongside the reported EC50.
- TESTED ON: LXRβ ligand-binding domain (Homo sapiens, UniProt P55055, DUP175-175)
- Construct: amino acids 156-461; NP009052; made in house; host or cells: E. coli
- Sequence (P55055 with tags, fused parts or gaps DUP175-175 limits assumed): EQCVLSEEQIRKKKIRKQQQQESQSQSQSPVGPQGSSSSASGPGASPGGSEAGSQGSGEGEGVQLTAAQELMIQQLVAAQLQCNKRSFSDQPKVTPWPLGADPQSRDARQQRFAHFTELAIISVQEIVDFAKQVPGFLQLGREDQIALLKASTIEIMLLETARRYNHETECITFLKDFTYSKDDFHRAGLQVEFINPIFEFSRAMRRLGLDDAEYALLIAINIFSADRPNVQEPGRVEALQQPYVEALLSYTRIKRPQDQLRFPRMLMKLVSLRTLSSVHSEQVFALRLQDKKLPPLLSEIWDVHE
- EXPERIMENT DESCRIPTION: TR-FRETβ activity assay (NCoA3 coactivator peptide recruitment)
- Type: biochemical
- CONDITION INFO: TR-FRET, 1 μM 24(S)-25-epoxycholesterol prestimulation; read-out: FRETβ (EC50 range)

Value of EC50 reported for the compound `Cc1ccc(S(=O)(=O)n2c(-c3cccc(C45CCC(C(=O)O)(CC4)CC5)c3)c(-c3ccsc3C#N)c3cc(F)ccc32)cc1` is 100 to 1000 nM

---

Listing of entries alongside the reported pEC50.
- TESTED ON: full length (FL) LXRβ (Homo sapiens, UniProt P55055, DUP175-175)
- Construct: the full length (FL) proteins of LXRα (amino acids 1-447); NP005684; NP009052; expressed in transfected cells; host or cells: HEK293
- EXPERIMENT DESCRIPTION: LXR Gal4 reporter transient transfection assay (FL-M2H Gal4β)
- Assay type: cell-based
- CONDITION INFO: HEK293 cells, full length LXRβ; read-out: FL-M2H Gal4β (EC50 range)
pEC50: −log10 of the molar value.

Known pEC50 results, listed for orientation:
[
  {
    "COMPOUND": "O=C(O)c1ccc(-c2cccc(-c3c(-c4cccc5nncn45)c4cc(F)ccc4n3S(=O)(=O)c3ccc(C(F)F)cc3)c2)c(Cl)c1 [11/43]",
    "pEC50": "6.00 to 7.00"
  },
  {
    "COMPOUND": "O=C(O)c1ccc(-c2cccc(-c3c(-c4cn[nH]c4C(F)(F)F)c4cc(F)ccc4n3S(=O)(=O)c3ccc(C(F)F)cc3)c2)c(Cl)c1 [11/25]",
    "pEC50": "> 7.00"
  },
  {
    "COMPOUND": "Cc1ccc(S(=O)(=O)n2c(-c3cccc(-c4cc(C(=O)O)nn4C(C)C)c3)c(-c3ccsc3C#N)c3cc(F)ccc32)cc1 [12/8]",
    "pEC50": "6.00 to 7.00"
  },
  {
    "COMPOUND": "N#Cc1sccc1-c1c(-c2cccc(-c3ccc(C(=O)O)cc3)c2)n(S(=O)(=O)c2ccc3c(c2)CCC3)c2ccc(F)cc12 [23/3]",
    "pEC50": "> 7.00"
  },
  {
    "COMPOUND": "COc1cc(-c2c(-c3cccc(-c4ccc(C(=O)O)cc4Cl)c3)n(S(=O)(=O)c3ccc(C(F)F)cc3)c3ccc(F)cc23)c2c(C#N)cnn2c1 [11/46]",
    "pEC50": "> 7.00"
  },
  {
    "COMPOUND": "Cc1ccc(S(=O)(=O)n2c(-c3cccc(N4CC(C(=O)O)C4)c3)c(-c3ccsc3C#N)c3cc(F)c(F)cc32)cc1 [3/42]",
    "pEC50": "> 7.00"
  }
]

Let me check: Cc1ccc(S(=O)(=O)n2c(-c3cccc(-c4cc(C(=O)O)nn4C)c3)c(-c3ccsc3C#N)c3cc(F)ccc32)cc1 [12/7] , system full length (FL) LXRβ (Homo sapiens, UniProt P55055, DUP175-175), measured pEC50 is 6.00 to 7.00

Let me check: Cc1ccc(S(=O)(=O)n2c(-c3cccc(N4CC(C(=O)O)C4)c3)c(-c3ccccc3C3COC3)c3cc(F)ccc32)cc1 [3/31] , system full length (FL) LXRβ (Homo sapiens, UniProt P55055, DUP175-175), measured pEC50 is 6.00 to 7.00

Let me check: Cc1ccc(S(=O)(=O)n2c(-c3ccnc(-c4ccc(C(=O)O)cc4)c3)c(-c3ccsc3C#N)c3cc(F)ccc32)cc1 [5/6] , system full length (FL) LXRβ (Homo sapiens, UniProt P55055, DUP175-175), measured pEC50 is > 7.00
